Biological target: T1, Human ACVR2A (human, UniProt P27037 20-135, limits assumed); note: test concentration or dose not given here
T1 construct: also called activin receptor, type II A
T1 sequence (P27037 20-135 limits assumed): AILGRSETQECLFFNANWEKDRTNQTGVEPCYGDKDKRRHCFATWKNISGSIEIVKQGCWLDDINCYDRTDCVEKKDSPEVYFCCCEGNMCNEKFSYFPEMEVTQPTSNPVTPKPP
Experiment: ELISA
ENDPOINT LABEL: optical density (OD)
Quick reminder: number only, in OD, skip the unit.

369_F11 (antibody, V domains shown) VH: EVQLLESGGGLVQPGGSLRLSCAASGFTFDSYGMNWVRQAPGKGLEWVSNINYNSGYKSYADSVKGRFTISRDNSKNTLYLQMNSLRAEDTAVYYCARSANWHDTALDYWGQGTLVTVSS VL: DIQMTQSPSSLSASVGDRVTITCRASQSIISYLNWYQQKPGKAPKLLIYAATSRASGVPSRFSGSGSGTDFTLTISSLQPEDFATYYCQQSYDLPLTFGGGTKVEIK: 3.2
368_A07 (antibody, V domains shown) VH: EVQLLESGGGLVQPGGSLRLSCAASGFTFSSYSMNWVRQAPGKGLEWVAGINYNSGYTSYADSVKGRFTISRDNSKNTLYLQMNSLRAEDTAVYYCARSANWHDTHLDYWGQGTLVTVSS VL: DIQMTQSPSSLSASVGDRVTITCRASQSILTYLNWYQQKPGKAPKLVIYATTSRASGVPSRFSGSGSGTDFTLTISSLQPEDFATYYCQQSNELPLTFGGGTKVEIK: 2.11
370_A01 (antibody, V domains shown) VH: EVQLLESGGGLVQPGGSLRLSCAASGFTFSSYSMNWVRQAPGKGLEWVSGINYNSGYKSYADSVKGRFTISRDNSKNTLYLQMNSLRAEDTAVYYCARSANWHDTALDYWGQGTLVTVSS VL: DIQMTQSPSSLSASVGDRVTITCRASQSISTYLNWYQQKPGKAPKLVIYAATSRASGVPSRFSGSGSGTDFTLTISSLQPEDFATYYCQQSYNLPLTFGGGTKVEIK: 2.86
372_F08 (antibody, V domains shown) VH: EVQLLESGGGLVQPGGSLRLSCAASGFTFSDYSMNWVRQAPGKGLEWVSNINYNSGYTGYADSVKGRFTISRDNSKNTLYLQMNSLRAEDTAVYYCARSANWHDTALDYWGQGTLVTVSS VL: DIQMTQSPSSLSASVGDRVTITCRASQSILTYVNWYQQKPGKAPKLVIYAATSRASGVPSRFSGSGSGTDFTLTISSLQPEDFATYYCQQSYDTPLTFGGGTKVEIK: 3.38
371_F06 (antibody, V domains shown) VH: EVQLLESGGGLVQPGGSLRLSCAASGFTFDSYSMNWVRQAPGKGLEWVANINYNGGYTSYADSVKGRFTISRDNSKNTLYLQMNSLRAEDTAVYYCARSANWHDTALDYWGQGTLVTVSS VL: DIQMTQSPSSLSASVGDRVTITCRASQSIVSYLNWYQQKPGKAPKLVIYAATSRHSGVPSRFSGSGSGTDFTLTISSLQPEDFATYYCQQSYNSPLTFGGGTKVEIK: 2.41

optical density reported for this binder 367_C11 (antibody, V domains shown) VH: EVQLLESGGGLVQPGGSLRLSCAASGFTFDSYSMNWVRQAPGKGLEWVSSINYNSGYTGYADSVKGRFTISRDNSKNTLYLQMNSLRAEDTAVYYCARSANWHDTHLDYWGQGTLVTVSS VL: DIQMTQSPSSLSASVGDRVTITCRASQSILSYLNWYQQKPGKAPKLVIYAATSRHSGVPSRFSGSGSGTDFTLTISSLQPEDFATYYCQQSYNTPLTFGGGTKVEIK : 2.33

optical density reported for this binder 371_A03 (antibody, V domains shown) VH: EVQLLESGGGLVQPGGSLRLSCAASGFTFSDYGMNWVRQAPGKGLEWVANINYNGGYTGYADSVKGRFTISRDNSKNTLYLQMNSLRAEDTAVYYCARSANWHDTALDYWGQGTLVTVSS VL: DIQMTQSPSSLSASVGDRVTITCRASQSILSYLNWYQQKPGKAPKLVIYATTSRASGVPSRFSGSGSGTDFTLTISSLQPEDFATYYCQQSYESPLTFGGGTKVEIK : 2.84

optical density reported for this binder 370_G09 (antibody, V domains shown) VH: EVQLLESGGGLVQPGGSLRLSCAASGFTFSSYGMNWVRQAPGKGLEWVAGINYNGGYKSYADSVKGRFTISRDNSKNTLYLQMNSLRAEDTAVYYCARSANWHDTALDYWGQGTLVTVSS VL: DIQMTQSPSSLSASVGDRVTITCRASQSILSYVNWYQQKPGKAPKLVIYAATSRASGVPSRFSGSGSGTDFTLTISSLQPEDFATYYCQQSYESPLTFGGGTKVEIK : 3.01

optical density reported for this binder 369_G11 (antibody, V domains shown) VH: EVQLLESGGGLVQPGGSLRLSCAASGFTFSSYSMNWVRQAPGKGLEWVANINYNSGYKGYADSVKGRFTISRDNSKNTLYLQMNSLRAEDTAVYYCARSANWHDTALDYWGQGTLVTVSS VL: DIQMTQSPSSLSASVGDRVTITCRASQSILTYLNWYQQKPGKAPKLLIYAATSLASGVPSRFSGSGSGTDFTLTISSLQPEDFATYYCQQSYESPLTFGGGTKVEIK : 3.03

optical density reported for this binder 373_C02 (antibody, V domains shown) VH: EVQLLESGGGLVQPGGSLRLSCAASGFTFDDYSMNWVRQAPGKGLEWVSGINYNSGYKGYADSVKGRFTISRDNSKNTLYLQMNSLRAEDTAVYYCARSANWHDTALDYWGQGTLVTVSS VL: DIQMTQSPSSLSASVGDRVTITCRASQSILSYVNWYQQKPGKAPKLLIYAATSRASGVPSRFSGSGSGTDFTLTISSLQPEDFATYYCQQSYNTPLTFGGGTKVEIK : 3.45
